molecular target: KRas^G12R (Homo sapiens, UniProt P01116, G12R); construct: Biotinylated KRas (corresponding to amino acids 1-169, produced at Accelegan Inc.); biotin (biotinylated); purchased Accelegan Inc; assay: KRas binding assay (TR-FRET tracer displacement), KRas G12R
Sequence (P01116 1-169 isoform P01116-2 G12R): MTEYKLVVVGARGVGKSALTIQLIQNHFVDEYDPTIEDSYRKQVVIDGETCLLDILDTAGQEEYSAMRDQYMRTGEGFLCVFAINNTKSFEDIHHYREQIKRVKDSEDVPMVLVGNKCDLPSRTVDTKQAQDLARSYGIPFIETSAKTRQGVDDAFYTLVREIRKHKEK
quantity: IC50 (nM)

A selection of reference data follows.
Query string: Which IC50 value is on record for O=C1NC(=O)[C@]2(CCCN(c3nc(OCC45CCCN4CCC5)nc4c(F)c(-c5c(C6CC6)c(Cl)cc6[nH]ncc56)ncc34)C2)N1 [Example 779] ?
Result string: 2

Query string: Which IC50 value is on record for CCc1c(F)ccc2cc(O)cc(-c3ncc4c(N5C[C@@H]6[C@@H](C(F)(F)F)C[C@]6(CO)C5)nc(OC[C@@]56CCCN5C[C@H](F)C6)nc4c3F)c12 [Example 647] ?
Result string: 582

Query string: Which IC50 value is on record for CCc1c(F)ccc2cc(O)cc(-c3ncc4c(N5CCC(C)(C)SC(C)(C)C5)nc(OC[C@@]56CCCN5C[C@H](F)C6)nc4c3F)c12 [Example 626] ?
Result string: 23600

P: CCc1c(F)ccc2cc(O)cc(-c3ncc4c(N5CCC(n6cnnc6)C5)nc(OC[C@@]56CCCN5C[C@H](F)C6)nc4c3F)c12 (stereo partly drawn) [Example 564]
Q: CCc1c(F)ccc2cc(O)cc(-c3ncc4c(N[C@@H](C)c5cc(C(=O)N(C)C)nn5C)nc(OC[C@@]56CCCN5C[C@H](F)C6)nc4c3F)c12 [Example 650]
Query string: Higher IC50: P or Q ? Response format: the label of the selected entry.
Result string: P
(P: 31 nM, Q: 3 nM)

* * *

biological target: KRas^G13D (Homo sapiens, UniProt P01116, G13D); construct: Biotinylated KRas (corresponding to amino acids 1-169, produced at Accelegan Inc.); biotin (biotinylated); purchased Accelegan Inc; assay: KRas binding assay (TR-FRET tracer displacement), KRas G13D; settings: TR-FRET tracer displacement, KRas G13D
Sequence (P01116 1-169 isoform P01116-2 G13D): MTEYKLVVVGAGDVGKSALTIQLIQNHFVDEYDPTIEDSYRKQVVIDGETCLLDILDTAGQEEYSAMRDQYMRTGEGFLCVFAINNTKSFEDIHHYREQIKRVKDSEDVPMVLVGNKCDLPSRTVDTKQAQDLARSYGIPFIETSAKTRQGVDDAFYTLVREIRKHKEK
quantity: IC50 (nM)

A selection of reference data follows.
Query string: Which IC50 value is on record for Cc1cc2[nH]ncc2c(-c2ncc3c(N4CC5C(=O)NC(=O)C5C4)nc(OCC45CCCN4CCC5)nc3c2F)c1C (stereo not shown) ?
Result string: 138

Query string: Which IC50 value is on record for Cc1cc2[nH]nnc2c(-c2ncc3c(N4CCCn5nc(C(=O)N(C)C)cc5C4)nc(OCC45CCCN4CCC5)nc3c2F)c1C ?
Result string: 4060

Query string: Which IC50 value is on record for O=C1NC(=O)C2(CCCN(c3nc(OCC45CCCN4CCC5)nc4c(F)c(-c5c6ccccc6cc6[nH]ncc56)ncc34)C2)N1 (stereo not shown) ?
Result string: 11

Query string: Which IC50 value is on record for Cc1ccc2c(-c3ncc4c(N5C[C@@H]6C[C@H](C5)[C@H](O)C6)nc(OC[C@@]56CCCN5C[C@H](F)C6)nc4c3F)cc(O)cc2c1 ?
Result string: 107

Query string: Which IC50 value is on record for Cc1c(Cl)cc2[nH]ncc2c1-c1ncc2c(N3CCC[C@]4(C3)NC(=O)NC4=O)nc(OCC34CCCN3CCC4)nc2c1F ?
Result string: 1210

Query string: Which IC50 value is on record for CN(C)C(=O)c1cc2n(n1)CCCN(c1nc(OC[C@@]34CCCN3C[C@H](F)C4)nc3c(F)c(-c4c5ccccc5cc5[nH]ncc45)ncc13)C2 ?
Result string: 177

Query string: Which IC50 value is on record for O=C1NCC2(CCCN(c3nc(OC[C@@]45CCCN4C[C@H](F)C5)nc4c(F)c(-c5c6ccccc6cc6[nH]ncc56)ncc34)C2)N1 (stereo partly shown) ?
Result string: 72

Query string: Which IC50 value is on record for C[C@@]1(O)CCCN(c2nc(OCC34CCCN3CCC4)nc3c(F)c(-c4c(C5CC5)c(Cl)cc5[nH]ncc45)ncc23)C1 ?
Result string: 10

Query string: Which IC50 value is on record for Cc1cc2[nH]ncc2c(-c2ncc3c(N4CCCC5(C4)NC(=O)NC5=O)nc(OCC45CCCN4CCC5)nc3c2F)c1C (stereo not shown) ?
Result string: 37

Query string: Which IC50 value is on record for Cc1cc2[nH]ncc2c(-c2ncc3c(N4CCCC5(CC(O)C5)C4)nc(OCC45CCCN4CCC5)nc3c2F)c1C (stereo not shown) ?
Result string: 888

a: C[C@@]1(O)CCCN(c2nc(OC[C@@]34CCCN3C[C@H](F)C4)nc3c(F)c(-c4c(C5CC5)c(Cl)cc5[nH]ncc45)ncc23)C1
b: Cc1cc2[nH]nnc2c(-c2ncc3c(N4CCCC5(CNC(=O)N5)C4)nc(OCC45CCCN4CCC5)nc3c2F)c1C (stereo not shown)
Query string: Dear colleague, could you let me know whether a or b has the lower recorded IC50? Thanks. Response format: the label of the selected entry.
Result string: a

* * *

target: KRas^G12C (Homo sapiens, UniProt P01116, G12C); construct: Biotinylated KRas (corresponding to amino acids 1-169, produced at Accelegan Inc.); biotin (biotinylated); purchased Accelegan Inc; assay: KRas binding assay (TR-FRET tracer displacement), KRas G12C; settings: TR-FRET tracer displacement, KRas G12C
Sequence (P01116 1-169 isoform P01116-2 G12C): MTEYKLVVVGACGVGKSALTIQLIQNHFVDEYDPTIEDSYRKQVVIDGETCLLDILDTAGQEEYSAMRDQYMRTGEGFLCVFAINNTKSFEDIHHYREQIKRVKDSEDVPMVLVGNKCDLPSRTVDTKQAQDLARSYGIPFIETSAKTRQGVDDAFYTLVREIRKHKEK
quantity: IC50 (nM)

Query string: Which IC50 value is on record for Oc1cc(-c2ncc3c(N4C[C@@H]5C[C@H](C4)[C@H](O)C5)nc(OC[C@@]45CCCN4C[C@H](F)C5)nc3c2F)c2ccccc2c1 ?
Result string: 10

Query string: Which IC50 value is on record for CCc1c(F)ccc2cc(O)cc(-c3ncc4c(N5CC[C@H]6C(=O)O[C@H]6C5)nc(OC[C@@]56CCCN5C[C@H](F)C6)nc4c3F)c12 ?
Result string: 2

Query string: Which IC50 value is on record for Oc1cc(Cl)c(C2CC2)c(-c2ncc3c(N4C[C@H]5C[C@@H](C4)[C@H](O)C5)nc(OCC45CCCN4CCC5)nc3c2F)c1 ?
Result string: 9

Query string: Which IC50 value is on record for Cc1cc2[nH]ncc2c(-c2ncc3c(N4CC5C(=O)NC(=O)C5C4)nc(OCC45CCCN4CCC5)nc3c2F)c1C (stereo not drawn) ?
Result string: 208

Query string: Which IC50 value is on record for Cc1cc2[nH]nnc2c(-c2ncc3c(N4CC5C(=O)NC(=O)C5C4)nc(OCC45CCCN4CCC5)nc3c2F)c1C (stereo not drawn) ?
Result string: 4490

Query string: Which IC50 value is on record for Oc1cc(Cl)c(C2CC2)c(-c2ncc3c(N4CCC[C@]5(C4)C[C@@H](O)C5)nc(OCC45CCCN4CCC5)nc3c2F)c1 ?
Result string: 6

a: Oc1cc(-c2ncc3c(N4C[C@@H]5C[C@H](C4)[C@H](O)C5)nc(OC[C@@]45CCCN4C[C@H](F)C5)nc3c2F)c2ccccc2c1C(F)(F)F
b: Oc1cc(-c2ncc3c(N4C[C@@H]5C[C@H](C4)[C@H](O)C5)nc(OC[C@@]45CCCN4C[C@H](F)C5)nc3c2F)c2cccc(F)c2c1
Query string: Higher IC50: a or b ? Response format: the label of the selected entry.
Result string: a
(a: 2780 nM, b: 18 nM)

P: Cc1cc2[nH]nnc2c(-c2ncc3c(N4CCOC[C@@](C)(O)C4)nc(OCC45CCCN4CCC5)nc3c2F)c1C
Q: Nc1nc2c(-c3ncc4c(N5CCCC6(C5)NC(=O)NC6=O)nc(OCC56CCCN5CCC6)nc4c3F)ccc(F)c2s1 (stereo not drawn)
R: Oc1cc(-c2ncc3c(N4C[C@@H]5C[C@H](C4)[C@H](O)C5)nc(OC[C@@]45CCCN4C[C@H](F)C5)nc3c2F)c2ccccc2c1Br
S: CN(C)C(=O)c1cc2n(n1)CCCN(c1nc(OC[C@@]34CCCN3C[C@H](F)C4)nc3c(F)c(-c4c5ccccc5cc5[nH]ncc45)ncc13)C2
Query string: Give the ascending ranking of the items by reported IC50. Write the labels, ordered according to the request.
Result string: S, Q, R, P
(S: 41 nM, Q: 111 nM, R: 635 nM, P: 4080 nM)

1: Cc1cccc2c(-c3ncc4c(N5C[C@@H]6C[C@H](C5)[C@H](O)C6)nc(OC[C@@]56CCCN5C[C@H](F)C6)nc4c3F)cc(O)cc12
2: Cc1cc2[nH]nnc2c(-c2ncc3c(N4CCC[C@@](C)(O)C4)nc(OCC45CCCN4CCC5)nc3c2F)c1C
3: C[C@@]1(O)CCCN(c2nc(OCC34CCCN3CCC4)nc3c(F)c(-c4c(C5CC5)c(Cl)cc5[nH]ncc45)ncc23)C1
Query string: Give the ascending ranking of the items by reported IC50. Write the labels, ordered according to the request.
Result string: 3, 1, 2

a: CN(C)C(=O)c1cc2n(n1)CCCN(c1nc(OCC34CCCN3CCC4)nc3c(F)c(-c4c(C5CC5)c(Cl)cc5[nH]ncc45)ncc13)C2
b: CCc1c(F)ccc2cc(O)cc(-c3nc4c5c(nc(OC[C@@]67CCCN6C[C@H](F)C7)nc5c3F)NCCO4)c12
Query string: Dear colleague, could you let me know whether a or b has the lower recorded IC50? Thanks. Response format: the label of the selected entry.
Result string: a
